All figures here come from paper PMC6295231.

System: ELK1-dependent promoter activation by AR
Test: primary screening assay
Assay type: cell-based
Settings: Homo sapiens, HeLa, read-out: IC50 for inhibition of ELK1-dependent promoter activation by AR
Decision: IC50 beneath 1000 nM gives class 1; IC50 meeting or exceeding 1000 nM gives class 0.

Check out these entries, answers already filled in.
{"molecule": "O=c1cc(-c2ccc(O)cc2)oc2cccc(O)c12 [5,4’-Dihydroxyflavone]", "groupLabel": "class 0"}
{"molecule": "O=c1cc(-c2cccc(O)c2)oc2cccc(O)c12 [KCI807, 5,3’-Dihydroxyflavone]", "groupLabel": "class 1"}
{"molecule": "O=c1cc(-c2ccccc2)oc2cccc(O)c12 [5-Hydroxyflavone]", "groupLabel": "class 0"}
{"molecule": "COc1ccc(-c2cc(=O)c3c(O)c(OC)c(OC)cc3o2)cc1O [5,3’-Dihydroxy-6,7,4’-trimethoxyflavone]", "groupLabel": "class 0"}

Hello, is IC50 of the following molecule strictly smaller than 1000 nM? COc1ccc(-c2cc(=O)c3c(O)cc(O)cc3o2)cc1O [5,7,3’-Trihydroxy-4’-methoxyflavone]
class 0

###

Assay: in vivo
Details: SCID, mouse
measurementName: half-life (h)
The answer is to be given in h; state only the numeric part.

Which half-life is listed for O=c1cc(-c2cccc(O)c2)oc2cccc(O)c12 [KCI807, 5,3’-Dihydroxyflavone] ?
6

###

Biological target: purified human AR (Homo sapiens, UniProt P10275)
Sequence (P10275 whole entry): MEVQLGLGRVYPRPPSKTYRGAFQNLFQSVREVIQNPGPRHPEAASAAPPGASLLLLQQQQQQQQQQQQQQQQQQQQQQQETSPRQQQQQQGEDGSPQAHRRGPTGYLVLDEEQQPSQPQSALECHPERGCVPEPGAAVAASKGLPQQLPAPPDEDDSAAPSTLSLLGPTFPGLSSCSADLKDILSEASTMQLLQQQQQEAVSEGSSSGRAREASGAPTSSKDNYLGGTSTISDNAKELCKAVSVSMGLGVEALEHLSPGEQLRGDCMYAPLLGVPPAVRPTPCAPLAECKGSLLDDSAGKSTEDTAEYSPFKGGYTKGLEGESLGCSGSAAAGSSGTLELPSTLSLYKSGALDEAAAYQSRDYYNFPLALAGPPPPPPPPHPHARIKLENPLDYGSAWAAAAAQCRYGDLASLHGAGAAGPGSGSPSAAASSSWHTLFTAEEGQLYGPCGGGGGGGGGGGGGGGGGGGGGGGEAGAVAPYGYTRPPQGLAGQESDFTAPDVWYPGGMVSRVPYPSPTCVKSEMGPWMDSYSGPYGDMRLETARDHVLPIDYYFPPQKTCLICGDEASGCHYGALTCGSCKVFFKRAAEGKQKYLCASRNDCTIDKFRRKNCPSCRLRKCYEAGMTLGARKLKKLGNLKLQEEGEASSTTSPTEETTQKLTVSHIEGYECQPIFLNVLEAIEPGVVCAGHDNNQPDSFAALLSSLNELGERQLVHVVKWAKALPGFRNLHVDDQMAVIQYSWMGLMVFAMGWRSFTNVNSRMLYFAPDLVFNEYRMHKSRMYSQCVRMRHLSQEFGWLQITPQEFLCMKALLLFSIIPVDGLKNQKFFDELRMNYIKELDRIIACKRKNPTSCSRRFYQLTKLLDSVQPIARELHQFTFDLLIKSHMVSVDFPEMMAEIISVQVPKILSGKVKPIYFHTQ
Entries and their Kd values follow.
The answer is to be given in nM; state only the numeric part.

{"compound": "O=c1cc(-c2cccc(O)c2)oc2cccc(O)c12 [KCI807, 5,3’-Dihydroxyflavone]", "targetOrTestSystem": "purified human AR (Homo sapiens, UniProt P10275)", "unitTag": "nM", "measuredValue": 69.2}

Give the reported Kd for O=c1cc(-c2cccc(O)c2)oc2ccccc12 [3’-Hydroxyflavone] (system: purified human AR (Homo sapiens, UniProt P10275)).
1430
